Tested on: Noggin (protein binding on small-molecule microarray)
assay-name: small molecules binding Noggin protein – biochemical, 635/667 nm fluorescence, primary screen (AID 1095);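 also: score merges 667 nm feature fluorescence with signal to noise over triplicate slides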
test-context: 635 nm fluorescence, higher = more signal
Rule: composite z-score under 0.2 gives label 0, otherwise label 1.

[[record]]
structure_notation = "Cc1ccc(S[C@]2(C(=O)NCC(C)C)CC(=O)N(C3CCCCC3)[C@@H]2c2ccc(CO)cc2I)cc1"
system_tested = "Noggin (protein binding on small-molecule microarray)"
assigned_label = "label 0"

[[record]]
structure_notation = "O=C1O[C@@H](c2ccccc2)[C@@H](c2ccccc2)N2[C@@H](c3ccc(O)cc3)[C@]3(C(=O)Nc4ccc(C#CC5=CCCCC5)cc43)[C@@H](C(=O)Nc3nc4ccccc4s3)[C@H]12"
system_tested = "Noggin (protein binding on small-molecule microarray)"
assigned_label = "label 1"

[[record]]
structure_notation = "COCCOC(=O)N1C(=O)[C@@]2(c3ccccc31)[C@H](c1ccccc1OCCO)N1[C@H](c3ccccc3)[C@H](c3ccccc3)OC(=O)[C@H]1[C@@H]2C(=O)N1CCc2cc(OC)c(OC)cc2C1"
system_tested = "Noggin (protein binding on small-molecule microarray)"
assigned_label = "label 1"

[[record]]
structure_notation = "COC(=O)[C@@]1(Cc2ccc(OC)cc2)[C@H]2c3cc(C(=O)N4CCCC4)n(CCc4ccc(O)c(OC)c4)c3C[C@H]2CN1C(=O)c1ccccc1"
system_tested = "Noggin (protein binding on small-molecule microarray)"
assigned_label = "label 0"

[[record]]
structure_notation = "CCCC=C(CCC)[C@@H](NC(=O)Cc1ccccc1)c1ccc(C(=O)OC)cc1"
system_tested = "Noggin (protein binding on small-molecule microarray)"
assigned_label = "label 1"

[[record]]
structure_notation = "COc1ccc([Si](C)(C)[C@H]2[C@H](CCO)O[C@@]3(C(=O)N(Cc4cccc(N5CCOC5=O)c4)c4ccccc43)[C@@H]2C)cc1"
system_tested = "Noggin (protein binding on small-molecule microarray)"
assigned_label = "label 1"


---

System: XIP peptide (Xip251-270)
assay-name: compounds binding XIP fragment 251-270 – biochemical, small-molecule microarray, fluorescence 635/667 nm, 0.5 µg/mL protein, primary screen (AID 1183)
test-context: fluorescence 635 nm, higher = more signal
Rule: composite z-score under 0.7 gives FALSE, otherwise TRUE.

[[record]]
compound = "O=C(O)[C@]1(CCS(=O)(=O)c2ccccc2)N=C(c2ccc(OCCCO)cc2)O[C@@H]1c1ccccc1"
assigned_label = "FALSE"

[[record]]
compound = "NC(=O)NCC#Cc1ccc2c(c1)[C@]1(C(=O)N2)[C@H](c2ccc(OCCO)cc2)N2[C@H](c3ccccc3)[C@H](c3ccccc3)OC(=O)[C@H]2[C@@H]1C(=O)N1CCN(c2ncccn2)CC1"
assigned_label = "FALSE"

[[record]]
compound = "Cc1ccc(C(C)CC(O)C2C=CC3C(=O)N(Cc4ccccc4)C(=O)C3N2n2cnnc2)o1 (stereo unspecified)"
assigned_label = "TRUE"

[[record]]
compound = "C=CCOC(=O)[C@@H]1[C@H]2C(=O)O[C@H](c3ccccc3)[C@H](c3ccccc3)N2[C@H](c2ccc(OCCOC(=O)[C@H]3C[C@H]4C(=O)N[C@@H](Cc5ccccc5)C(=O)N4[C@H]3c3cccc(OCCO)c3)cc2)[C@@]12C(=O)Nc1ccc(I)cc12"
assigned_label = "TRUE"

[[record]]
compound = "C=CCOC(=O)[C@@H]1[C@H]2C(=O)O[C@H](c3ccccc3)[C@H](c3ccccc3)N2[C@H](c2ccc(OCCOC(=O)[C@@H]3C[C@@H]4C(=O)N5CCC[C@H]5C(=O)N4[C@@H]3c3cccc(OCCO)c3)cc2)[C@@]12C(=O)Nc1ccc(I)cc12"
assigned_label = "FALSE"

[[record]]
compound = "[N-]=[N+]=NCc1ccccc1C[C@]1(C(=O)NCCN2CCOCC2)COC(c2ccc(OCCCO)cc2)=N1"
assigned_label = "FALSE"

[[record]]
compound = "CN(C)CCCN1C(=O)[C@@]2(Cc3ccccc31)c1ccccc1C(=O)N(Cc1ccccc1)[C@H]2c1ccc(CO)cc1"
assigned_label = "FALSE"

[[record]]
compound = "CC(C)(C)OC(=O)CC[C@@]1(C(=O)N2CCCCC2)N=C(c2ccc(OCCCO)cc2)O[C@@H]1c1ccccc1CN=[N+]=[N-]"
assigned_label = "TRUE"

[[record]]
compound = "CCCN1C(=O)[C@@]2(Cc3ccccc3)N=C(c3ccc(OCCCO)cc3)O[C@H]2c2ccccc21"
assigned_label = "TRUE"

[[record]]
compound = "COc1ccc(C#Cc2ccc3c(c2)[C@]2(C(=O)N3)[C@H](c3ccc(OCCO)cc3)N3[C@H](c4ccccc4)[C@H](c4ccccc4)OC(=O)[C@H]3[C@@H]2C(=O)N2CCN(c3ncccn3)CC2)cc1"
assigned_label = "FALSE"

[[record]]
compound = "C=C[C@H](C)[C@H](OC(=O)Nc1ccc(SC)cc1)c1ccc(O)c2ccccc12"
assigned_label = "FALSE"

[[record]]
compound = "NC(=O)[C@H]1[C@@H]2C(=O)O[C@@H](c3ccccc3)[C@@H](c3ccccc3)N2[C@@H](c2ccc(O)cc2)[C@]12C(=O)Nc1ccc(C#CC3(O)CCCCCC3)cc12"
assigned_label = "TRUE"

[[record]]
compound = "CC(C)(C)OC(=O)CC[C@]1(C(=O)O)COC(c2ccc(OCCCO)cc2)=N1"
assigned_label = "FALSE"

[[record]]
compound = "CN(C)C(=O)[C@]1(Cc2ccccc2N=[N+]=[N-])N=C(c2ccc(OCCCO)cc2)O[C@@H]1c1ccccc1CN=[N+]=[N-]"
assigned_label = "FALSE"

[[record]]
compound = "CCCNC(=O)[C@@]1(Sc2ccc(C)cc2)CC(=O)N(Cc2ccccc2)[C@@H]1c1ccc(CO)cc1I"
assigned_label = "TRUE"

[[record]]
compound = "COCCOC(=O)N1C(=O)[C@@]2(c3cc(C#CCNC(N)=O)ccc31)[C@H](c1ccc(OCCO)cc1)N1[C@H](c3ccccc3)[C@H](c3ccccc3)OC(=O)[C@H]1[C@@H]2C(=O)N1CCN(c2ncccn2)CC1"
assigned_label = "FALSE"

[[record]]
compound = "COC(=O)[C@@]1(Cc2ccccc2)[C@H]2c3cc(C(=O)N4CCCC4)n(CCO)c3C[C@H]2CN1C(=O)c1ccccc1"
assigned_label = "TRUE"

[[record]]
compound = "C=CC[C@]1(C(=O)N2CCOCC2)N=C(c2ccc(OCCCO)cc2)O[C@H]1c1ccccc1CN=[N+]=[N-]"
assigned_label = "TRUE"

[[record]]
compound = "O=C(C=C(CC(O)c1cccc(Cl)c1)OCCF)OCCF (stereo unspecified)"
assigned_label = "FALSE"

[[record]]
compound = "COCCCNC(=O)[C@]1(CCS(=O)(=O)c2ccccc2)N=C(c2ccc(OCCCO)cc2)O[C@@H]1c1ccccc1"
assigned_label = "TRUE"

[[record]]
compound = "COC(=O)[C@@]1(Cc2ccccc2)[C@H]2c3cc(C(=O)N(C)C)n(Cc4ccccn4)c3C[C@H]2CN1C(=O)c1ccccc1"
assigned_label = "FALSE"

[[record]]
compound = "C[C@]12C(=O)N(CCCO)[C@@H]3C(=O)N(c4ccc(Cl)cc4)CC=CC31O[C@@H]1/C=C\\CCCOC(=O)C12 (stereo partly specified)"
assigned_label = "FALSE"

[[record]]
compound = "CO[C@H]1O[C@H](CO)[C@@H](OC(=O)c2ccc(Br)cc2)[C@@H]2OC(=O)[C@H](Cc3cccc(Br)c3)C/C=C/C[C@@H](Cc3cccc(Br)c3)C(=O)O[C@@H]12"
assigned_label = "FALSE"

[[record]]
compound = "C[N+](C)(C)CCCC[C@@H]1NC(=O)[C@@H]2C[C@H](C(=O)NCCCCCNC(=O)CS)[C@H](c3cccc(OCCO)c3)N2C1=O"
assigned_label = "FALSE"

[[record]]
compound = "C[N+](C)(C)CCCC[C@@H]1NC(=O)[C@@H]2C[C@H](C(=O)O)[C@H](c3cccc(OCCO)c3)N2C1=O"
assigned_label = "FALSE"


---

Test system: Chordin-like protein 2 (CHRDL2)
assay-name: compounds binding chordin-like 2 – biochemical, small-molecule microarray, 635 nm fluorescence, primary screen (AID 1126);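 also: printed compound slides probed with Chrdl2 protein at 4 µg/mL for 1 h at 4 C; score merges 667 nm emission intensity with signal to noise over three replicate slides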
test-context: fluorescence 635 nm, higher = more signal
measure-name: composite z-score

[[record]]
molecule = "COc1ccc([Si](C)(C)[C@H]2[C@H](CC(=O)N3CCC[C@H]3CO)O[C@@]3(C(=O)N(Cc4ccc(N5C(=O)c6cccc7cccc5c67)cc4)c4ccccc43)[C@@H]2C)cc1"
numeric_result = 0.634

[[record]]
molecule = "C[C@H]1NC(=O)C([C@@H](C)OCc2ccccc2)NC(=O)[C@@]23C(=O)N[C@@H](Cc4ccccc4)C2[C@H](C)[C@@]2(C)O[C@H]2C3/C=C/CC/C=C/CNC1=O (stereo partly specified)"
numeric_result = 0.634

[[record]]
molecule = "COC(=O)[C@@]1(Cc2ccccc2)[C@H]2c3cc(C(=O)N(C)C)n(Cc4ccc(O)c(OC)c4)c3C[C@H]2CN1C(=O)c1ccccc1"
numeric_result = -0.629

[[record]]
molecule = "COC(=O)c1c(CC[C@@H](CO)NC(=O)N[C@@H](C)Cn2cc(C3(O)CCCC3)nn2)oc(C(C)=O)c1C(=O)OC"
numeric_result = -0.425

[[record]]
molecule = "COC(=O)C(CC#Cc1ccc2c(c1)[C@]1(C(=O)N2)[C@H](c2ccc(O)cc2)N2[C@H](c3ccccc3)[C@H](c3ccccc3)OC(=O)[C@H]2[C@@H]1C(=O)O)C(=O)OC"
numeric_result = -0.3

[[record]]
molecule = "COCCOC(=O)N1C(=O)[C@@]2(c3cc(C#Cc4ccc(OC)cc4)ccc31)[C@H](C(=O)N1CCc3cc(OC)c(OC)cc3C1)[C@H]1C(=O)O[C@H](c3ccccc3)[C@H](c3ccccc3)N1[C@@H]2c1ccc(OCCO)cc1"
numeric_result = 0.598


Ref: PubChem BioAssay
